target: Human immunodeficiency virus type 1 protease (Human immunodeficiency virus 1, UniProt Q72874)
pIC50: −log10 of the molar value.
Could you label it True if measured pIC50 is 5 or higher, and False otherwise?

[
  {
    "chemical structure": "CC[C@H](C)[C@H](NC(=O)[C@H](CCC(N)=O)NC(=O)[C@@H]1CCCN1C(=O)CCCCCCC/C=C\\CCCCCCCC(=O)N[C@H](CO)C(=O)N[C@@H](C(=O)N[C@H](CC(C)C)C(=O)N[C@H](CC(N)=O)C(=O)N[C@H](Cc1ccccc1)C(=O)O)[C@H](C)O)C(=O)N[C@H](C(=O)N[C@@H](CC(C)C)C(=O)N[C@@H](Cc1c[nH]c2ccccc12)C(=O)O)[C@@H](C)O",
    "discrete label": "True"
  },
  {
    "chemical structure": "CC[C@H](C)[C@H](NC(=O)[C@H](CCC(N)=O)NC(=O)[C@@H]1CCCN1C(=O)CCCCCC/C=C/CCCCCCC(=O)N[C@H](CO)C(=O)N[C@@H](C(=O)N[C@H](CC(C)C)C(=O)N[C@H](CC(N)=O)C(=O)N[C@H](Cc1ccccc1)C(=O)O)[C@H](C)O)C(=O)N[C@H](C(=O)N[C@@H](CC(C)C)C(=O)N[C@@H](Cc1c[nH]c2ccccc12)C(=O)O)[C@@H](C)O",
    "discrete label": "False"
  },
  {
    "chemical structure": "CC[C@H](C)[C@H](NC(=O)[C@H](CCC(N)=O)NC(=O)[C@@H]1CCCN1C(=O)CCCCC/C=C\\CCCCCC(=O)N[C@H](CO)C(=O)N[C@@H](C(=O)N[C@H](CC(C)C)C(=O)N[C@H](CC(N)=O)C(=O)N[C@H](Cc1ccccc1)C(=O)O)[C@H](C)O)C(=O)N[C@H](C(=O)N[C@@H](CC(C)C)C(=O)N[C@@H](Cc1c[nH]c2ccccc12)C(=O)O)[C@@H](C)O",
    "discrete label": "False"
  },
  {
    "chemical structure": "CC[C@H](C)[C@H](NC(=O)[C@H](CCC(N)=O)NC(=O)[C@@H]1CCCN1C(=O)CCCCCCCCCCCCCCCCC(=O)N[C@H](CO)C(=O)N[C@@H](C(=O)N[C@H](CC(C)C)C(=O)N[C@H](CC(N)=O)C(=O)N[C@H](Cc1ccccc1)C(=O)O)[C@H](C)O)C(=O)N[C@H](C(=O)N[C@@H](CC(C)C)C(=O)N[C@@H](Cc1c[nH]c2ccccc12)C(=O)O)[C@@H](C)O",
    "discrete label": "True"
  }
]

###

target: Human immunodeficiency virus type 1 protease (Human immunodeficiency virus 1, UniProt Q72874)
pIC50: −log10 of the molar value.
result type: pIC50

[
  {
    "chemical structure": "CC[C@H](C)[C@H](NC(=O)[C@H](CCC(N)=O)NC(=O)[C@@H]1CCCN1C(=O)CCCCCCC#CCCCCCCC(=O)N[C@H](CO)C(=O)N[C@@H](C(=O)N[C@H](CC(C)C)C(=O)N[C@H](CC(N)=O)C(=O)N[C@H](Cc1ccccc1)C(=O)O)[C@H](C)O)C(=O)N[C@H](C(=O)N[C@@H](CC(C)C)C(=O)N[C@@H](Cc1c[nH]c2ccccc12)C(=O)O)[C@@H](C)O",
    "value": 5.35
  },
  {
    "chemical structure": "CC[C@H](C)[C@H](NC(=O)[C@H](CCC(N)=O)NC(=O)[C@@H]1CCCN1C(=O)CCCCC/C=C/CCCCCC(=O)N[C@H](CO)C(=O)N[C@@H](C(=O)N[C@H](CC(C)C)C(=O)N[C@H](CC(N)=O)C(=O)N[C@H](Cc1ccccc1)C(=O)O)[C@H](C)O)C(=O)N[C@H](C(=O)N[C@@H](CC(C)C)C(=O)N[C@@H](Cc1c[nH]c2ccccc12)C(=O)O)[C@@H](C)O",
    "value": 4.29
  },
  {
    "chemical structure": "CC[C@H](C)[C@H](NC(=O)[C@H](CCC(N)=O)NC(=O)[C@@H]1CCCN1C(=O)CCCCCCCCCCCCCCC(=O)N[C@H](CO)C(=O)N[C@@H](C(=O)N[C@H](CC(C)C)C(=O)N[C@H](CC(N)=O)C(=O)N[C@H](Cc1ccccc1)C(=O)O)[C@H](C)O)C(=O)N[C@H](C(=O)N[C@@H](CC(C)C)C(=O)N[C@@H](Cc1c[nH]c2ccccc12)C(=O)O)[C@@H](C)O",
    "value": 5.70
  }
]
